# Subject Of Test: PSMA (Homo sapiens)
# Construct: host or cells: 22Rv1 human prostate cancer cells
# Sequence (Q04609 whole entry): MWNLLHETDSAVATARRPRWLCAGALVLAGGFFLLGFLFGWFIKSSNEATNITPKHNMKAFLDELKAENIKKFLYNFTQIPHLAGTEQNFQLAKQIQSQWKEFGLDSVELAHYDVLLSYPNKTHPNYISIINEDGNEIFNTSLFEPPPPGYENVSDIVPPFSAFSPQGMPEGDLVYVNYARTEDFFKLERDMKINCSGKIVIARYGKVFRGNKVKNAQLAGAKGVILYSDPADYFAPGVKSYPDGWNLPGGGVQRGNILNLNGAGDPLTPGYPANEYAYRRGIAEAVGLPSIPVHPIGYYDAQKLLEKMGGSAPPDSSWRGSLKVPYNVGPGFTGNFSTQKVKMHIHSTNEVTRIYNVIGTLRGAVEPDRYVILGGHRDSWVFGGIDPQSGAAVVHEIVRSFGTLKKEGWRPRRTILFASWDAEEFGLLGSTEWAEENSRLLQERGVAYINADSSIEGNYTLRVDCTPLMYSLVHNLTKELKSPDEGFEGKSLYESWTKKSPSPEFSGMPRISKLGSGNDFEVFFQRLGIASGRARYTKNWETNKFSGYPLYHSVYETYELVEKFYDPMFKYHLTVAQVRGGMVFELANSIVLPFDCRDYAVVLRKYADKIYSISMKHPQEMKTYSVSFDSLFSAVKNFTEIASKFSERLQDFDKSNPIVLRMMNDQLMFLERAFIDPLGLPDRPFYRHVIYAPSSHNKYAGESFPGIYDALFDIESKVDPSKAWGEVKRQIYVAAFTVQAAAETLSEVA
# Test Method Notes: Relative binding affinity of DUPA-NIR conjugates with respect to DUPA-FITC on 22Rv1 cells, flow cytometry
# Test Settings: Example 5, variably charged NIR dye, 1 h at 37° C., 100 nM DUPA-FITC
Recorded Endpoint: pKd
A value of pKd is the negative decimal logarithm of a concentration given in moles per litre.

# example entries with known answers
{"Compound Smiles": "CC1(C)C(/C=C/C2=C(Oc3ccc(C[C@H](NC(=O)[C@H](Cc4ccccc4)NC(=O)CCCCCCCNC(=O)CC[C@H](NC(=O)N[C@@H](CCC(=O)O)C(=O)O)C(=O)O)C(=O)O)cc3)C(=C/C=C3/N(CCCCS(=O)(=O)O)c4ccccc4C3(C)C)/CCC2)=[N+](CCCCS(=O)(=O)[O-])c2ccccc21", "pKd": 8.59}
{"Compound Smiles": "CN1/C(=C/C=C2\\CCCC(/C=C/C3=[N+](C)c4ccc(S(=O)(=O)[O-])cc4C3(C)C)=C2Oc2ccc(C[C@H](NC(=O)[C@H](Cc3ccccc3)NC(=O)CCCCCCCNC(=O)CC[C@H](NC(=O)N[C@@H](CCC(=O)O)C(=O)O)C(=O)O)C(=O)O)cc2)C(C)(C)c2cc(S(=O)(=O)O)ccc21", "pKd": 8.43}
{"Compound Smiles": "CC1(C)C(/C=C/C2=C(Oc3ccc(C[C@H](NC(=O)[C@H](Cc4ccccc4)NC(=O)CCCCCCCNC(=O)CC[C@H](NC(=O)N[C@@H](CCC(=O)O)C(=O)O)C(=O)O)C(=O)O)cc3)C(=C/C=C3/N(CCC[N+](C)(C)C)c4ccc(S(=O)(=O)O)cc4C3(C)C)/CCC2)=[N+](CCC[N+](C)(C)C)c2ccc(S(=O)(=O)O)cc21", "pKd": 8.27}

Data request: Look up and report measured pKd for this entry: `CN1/C(=C/C=C2\CCCC(/C=C/C3=[N+](C)c4ccccc4C3(C)C)=C2Oc2ccc(C[C@H](NC(=O)[C@H](Cc3ccccc3)NC(=O)CCCCCCCNC(=O)CC[C@H](NC(=O)N[C@@H](CCC(=O)O)C(=O)O)C(=O)O)C(=O)O)cc2)C(C)(C)c2ccccc21`
Data returned: 8.14

Data request: Look up and report measured pKd for this entry: `CC1(C)C(/C=C/C2=C(Oc3ccc(C[C@H](NC(=O)[C@H](Cc4ccccc4)NC(=O)CCCCCCCNC(=O)CC[C@H](NC(=O)N[C@@H](CCC(=O)O)C(=O)O)C(=O)O)C(=O)O)cc3)C(=C/C=C3/N(CCC[N+](C)(C)C)c4ccccc4C3(C)C)/CCC2)=[N+](CCC[N+](C)(C)C)c2ccccc21`
Data returned: 7.22

====

# Subject Of Test: PSMA (Homo sapiens)
# Construct: host or cells: 22Rv1 human prostate cancer cells
# Test Method Notes: Relative binding affinity of DUPA-NIR conjugates with respect to DUPA-FITC on 22Rv1 cells, flow cytometry
# Test Settings: in vitro binding affinity data
Recorded Endpoint: affinity for PSMA (in words)

# example entries with known answers
{"Molecule": "CC1(C)C(/C=C/C2=C(Oc3ccc(CCNC(=O)CC[C@H](NC(=O)N[C@@H](CCC(=O)O)C(=O)O)C(=O)O)cc3)C(=C/C=C3/N(CCCCS(=O)(=O)O)c4ccc(S(=O)(=O)O)cc4C3(C)C)/CCC2)=[N+](CCCCS(=O)(=O)[O-])c2ccc(S(=O)(=O)O)cc21", "Recorded Endpoint": "affinity for PSMA (in words)", "Result": "low affinity"}
{"Molecule": "CC1(C)C(=CC=C2CCCC(C=CC3=[N+](CCCCS(=O)(=O)[O-])c4ccccc4C3(C)C)=C2Oc2ccc(CC(NC(=O)C(CCCNC(=N)N)NC(=O)C(CCCNC(=N)N)NC(=O)CCCCCCCNC(=O)CCC(NC(=O)NC(CCC(=O)O)C(=O)O)C(=O)O)C(=O)O)cc2)N(CCCCS(=O)(=O)O)c2ccccc21 (centres unmarked)", "Recorded Endpoint": "affinity for PSMA (in words)", "Result": "low affinity"}
{"Molecule": "CC1(C)C(/C=C/C2=C(Oc3ccc(C[C@H](NC(=O)CCCCCCCNC(=O)CC[C@H](NC(=O)N[C@@H](CCC(=O)O)C(=O)O)C(=O)O)C(=O)O)cc3)C(=C/C=C3/N(CCCCS(=O)(=O)O)c4ccc(S(=O)(=O)O)cc4C3(C)C)/CCC2)=[N+](CCCCS(=O)(=O)[O-])c2ccc(S(=O)(=O)O)cc21", "Recorded Endpoint": "affinity for PSMA (in words)", "Result": "very high affinity"}
{"Molecule": "CC1(C)C(=CC=C2CCOC(C=CC3=[N+](CCCCS(=O)(=O)[O-])c4ccc(S(=O)(=O)O)cc4C3(C)C)=C2c2ccc(C(=O)NCCNC(=O)C(Cc3ccccc3)NC(=O)CCCCCCCNC(=O)CCC(NC(=O)NC(CCC(=O)O)C(=O)O)C(=O)O)cc2)N(CCCCS(=O)(=O)O)c2ccc(S(=O)(=O)O)cc21 (centres unmarked)", "Recorded Endpoint": "affinity for PSMA (in words)", "Result": "low affinity"}

Data request: Look up and report measured affinity for PSMA (in words) for this entry: `CC1(C)C(/C=C/C2=C(Oc3ccc(C[C@H](NC(=O)CC[C@H](NC(=O)N[C@@H](CCC(=O)O)C(=O)O)C(=O)O)C(=O)O)cc3)C(=C/C=C3/N(CCCCS(=O)(=O)O)c4ccc(S(=O)(=O)O)cc4C3(C)C)/CCC2)=[N+](CCCCS(=O)(=O)[O-])c2ccc(S(=O)(=O)O)cc21`
Data returned: low affinity

Data request: Look up and report measured affinity for PSMA (in words) for this entry: CC1(C)C(=CC=C2CCCC(C=CC3=[N+](CCCCS(=O)(=O)[O-])c4ccccc4C3(C)C)=C2Oc2ccc(CC(NC(=O)C(CCCNC(=N)N)NC(=O)C(Cc3ccccc3)NC(=O)CCCCCCCNC(=O)CCC(NC(=O)NC(CCC(=O)O)C(=O)O)C(=O)O)C(=O)O)cc2)N(CCCCS(=O)(=O)O)c2ccccc21 (centres unmarked)
Data returned: low affinity

Data request: Look up and report measured affinity for PSMA (in words) for this entry: `CC1(C)C(/C=C/C2=C(SC[C@H](NC(=O)[C@H](Cc3ccccc3)NC(=O)CCCCCCCNC(=O)CC[C@H](NC(=O)N[C@@H](CCC(=O)O)C(=O)O)C(=O)O)C(=O)O)C(=C/C=C3/N(CCCCS(=O)(=O)O)c4ccc(S(=O)(=O)O)cc4C3(C)C)/CCC2)=[N+](CCCCS(=O)(=O)[O-])c2ccc(S(=O)(=O)O)cc21`
Data returned: very high affinity
